- protocol.description: Biodistribution in Daudi xenograft bearing CB-17 SCID mice
- Assay type: in vivo
- details: mouse, iv, total radioactivity, Stomach, 1 h p.i., CB-17 SCID female mice, read-out: % iD/g Stomach
Positions of bridges follow the written chain, without caps; N, C: chain ends. Non-standard residues stand in square brackets, D forms with d. Residues, ends and D or L forms follow the SMILES beside them. Chains are numbered I, II in the order given. *: point of attachment. 2Nal = N[C@@H](Cc1ccc2ccccc2c1)C(=O)O; dNMeOrn = CN[C@H](CCCN)C(=O)O; Mercaptoacetyl = O=C(CS)*; 4Abz = Nc1ccc(C(=O)O)cc1
parameter.measured: tissue uptake at 1 h (%ID/g)
Entry rule: numbers only, all in %ID/g.

## Input Look up and report measured tissue uptake at 1 h for this entry: C[C@@H](NC(=O)[C@@H](CCCNC(=N)N)NC(=O)[C@@H](CO)NC(=O)[C@@H](CO)NC(=O)[C@@H](CO)NC(=O)CS)C(=O)Nc1ccc(C(=O)NCCC[C@@H]2C(=O)N[C@@H](CCCNC(=N)N)C(=O)N[C@@H](Cc3ccc4ccccc4c3)C(=O)NCC(=O)N[C@H](Cc3ccc(O)cc3)C(=O)N2C)cc1 [Tc-CXCR4-1] (I: Mercaptoacetyl-[dS][dS][dS][dR][dA][4Abz] / II: cyclo([dY][dNMeOrn]R[2Nal]G); amide I:C-II:2)
## Output 0.86

* * *

Examples of compounds with documented tissue uptake at 48 h follow.
- protocol.description: Biodistribution in Jurkat tumor-bearing CB-17 SCID mice
- Format: in vivo
- details: female, CB-17 SCID, mouse, in vivo, iv, total radioactivity, % iD/g Heart
Non-standard residues stand in square brackets, D forms with d. Residues, ends and D or L forms follow the SMILES beside them. Groups on a side chain read outwards from the residue. *: point of attachment. DOTA = O=C(O)CN1CCN(CC(=O)O)CCN(CC(=O)*)CCN(CC(=O)O)CC1; dTyr(3-I) = N[C@H](Cc1ccc(O)c(I)c1)C(=O)O; 2Nal = N[C@@H](Cc1ccc2ccccc2c1)C(=O)O; dNMeOrn = CN[C@H](CCCN)C(=O)O; 4Abz = Nc1ccc(C(=O)O)cc1; dDap = NC[C@@H](N)C(=O)O
Entry rule: numbers only, all in %ID/g.

## Input Look up and report measured tissue uptake at 48 h for this entry: C[C@@H](NC(=O)[C@@H](CCCNC(=N)N)NC(=O)[C@@H](CN)NC(=O)CN1CCN(CC(=O)O)CCN(CC(=O)O)CCN(CC(=O)O)CC1)C(=O)Nc1ccc(C(=O)NCCC[C@@H]2C(=O)N[C@@H](CCCNC(=N)N)C(=O)N[C@@H](Cc3ccc4ccccc4c3)C(=O)NCC(=O)N[C@H](Cc3ccc(O)cc3)C(=O)N2C)cc1 [CXCR4-DOTA-3 [Lu]] (cyclo([dY][dNMeOrn]([4Abz-dA-dR-dDap-DOTA])R[2Nal]G))
## Output 0.06

Now let's try a different one.
## Input Look up and report measured tissue uptake at 48 h for this entry: C[C@@H](NC(=O)[C@@H](CCCNC(=N)N)NC(=O)[C@@H](CN)NC(=O)CN1CCN(CC(=O)O)CCN(CC(=O)O)CCN(CC(=O)O)CC1)C(=O)Nc1ccc(C(=O)NCCC[C@@H]2C(=O)N[C@@H](CCCNC(=N)N)C(=O)N[C@@H](Cc3ccc4ccccc4c3)C(=O)NCC(=O)N[C@H](Cc3ccc(O)c(I)c3)C(=O)N2C)cc1 [CXCR4-DOTA-4 [Lu]] (cyclo([dTyr(3-I)][dNMeOrn]([4Abz-dA-dR-dDap-DOTA])R[2Nal]G))
## Output 0.21

* * *

Examples of molecules with documented tissue uptake at 1 h follow.
- protocol.description: Biodistribution in Jurkat tumor-bearing CB-17 SCID mice
- Assay type: in vivo
- details: female, CB-17 SCID, mouse, in vivo, iv, total radioactivity, % iD/g Intestine
Non-standard residues stand in square brackets, D forms with d. Residues, ends and D or L forms follow the SMILES beside them. Groups on a side chain read outwards from the residue. *: point of attachment. DOTA = O=C(O)CN1CCN(CC(=O)O)CCN(CC(=O)*)CCN(CC(=O)O)CC1; 2Nal = N[C@@H](Cc1ccc2ccccc2c1)C(=O)O; dNMeOrn = CN[C@H](CCCN)C(=O)O; HYNIC = NNc1ccc(C(=O)*)cn1; 4Abz = Nc1ccc(C(=O)O)cc1; dDap = NC[C@@H](N)C(=O)O
Entry rule: numbers only, all in %ID/g.

Consider the following illustrative entries.
## Input Look up and report measured tissue uptake at 1 h for this entry: C[C@@H](NC(=O)[C@@H](CCCNC(=N)N)NC(=O)[C@@H](CN)NC(=O)CCCCCNC(=O)[C@@H](CNC(=O)CN1CCN(CC(=O)O)CCN(CC(=O)O)CCN(CC(=O)O)CC1)NC(=O)CCCCC[N+]1=C(/C=C/C=C/C=C2/N(C)c3ccc(S(=O)(=O)O)cc3C2(C)C)C(C)(C)c2cc(S(=O)(=O)[O-])ccc21)C(=O)Nc1ccc(C(=O)NCCC[C@@H]2C(=O)N[C@@H](CCCNC(=N)N)C(=O)N[C@@H](Cc3ccc4ccccc4c3)C(=O)NCC(=O)N[C@H](Cc3ccc(O)cc3)C(=O)N2C)cc1 [[^natLu]CXCR4-OI-3, metal not drawn]
## Output 0.85

## Input Look up and report measured tissue uptake at 1 h for this entry: C[C@@H](NC(=O)[C@@H](CCCNC(=N)N)NC(=O)[C@@H](CN)NC(=O)c1ccc(NN)nc1)C(=O)Nc1ccc(C(=O)NCCC[C@@H]2C(=O)N[C@@H](CCCNC(=N)N)C(=O)N[C@@H](Cc3ccc4ccccc4c3)C(=O)NCC(=O)N[C@H](Cc3ccc(O)cc3)C(=O)N2C)cc1 [Tc-CXCR4-13] (cyclo([dY][dNMeOrn]([4Abz-dA-dR-dDap-HYNIC])R[2Nal]G))
## Output 0.57

Now let's try a different one.
## Input Look up and report measured tissue uptake at 1 h for this entry: C[C@@H](NC(=O)[C@@H](CCCNC(=N)N)NC(=O)[C@@H](CN)NC(=O)CN1CCN(CC(=O)O)CCN(CC(=O)O)CCN(CC(=O)O)CC1)C(=O)Nc1ccc(C(=O)NCCC[C@@H]2C(=O)N[C@@H](CCCNC(=N)N)C(=O)N[C@@H](Cc3ccc4ccccc4c3)C(=O)NCC(=O)N[C@H](Cc3ccc(O)cc3)C(=O)N2C)cc1 [CXCR4-DOTA-3 [Lu]] (cyclo([dY][dNMeOrn]([4Abz-dA-dR-dDap-DOTA])R[2Nal]G))
## Output 0.44
